FYI, the data here is from the supplement of paper PMC10307832.

Some compounds, each annotated with its measured relative viability.
System: NCI-H661
TEST DETAILS: relative viability (nuclei count vs DMSO), 5 days (fraction); higher = more cells survive
SETTINGS: first compound 0.03162 µM
Just the number, please, no unit after it.

Example cases with answers are listed next.
COMPOUND	relative viability
Cc1cn(-c2cc(NC(=O)c3ccc(C)c(Nc4nccc(-c5cccnc5)n4)c3)cc(C(F)(F)F)c2)cn1 [Nilotinib] + Nc1nc2[nH]cc(CCc3ccc(C(=O)N[C@@H](CCC(=O)O)C(=O)O)cc3)c2c(=O)[nH]1 [Pemetrexed] (partner 0.2 µM)	0.888
Cc1cn(-c2cc(NC(=O)c3ccc(C)c(Nc4nccc(-c5cccnc5)n4)c3)cc(C(F)(F)F)c2)cn1 [Nilotinib] + COc1cc2c(Oc3ccc(NC(=O)C4(C(=O)Nc5ccc(F)cc5)CC4)cc3F)ccnc2cc1OCCCN1CCOCC1 [Foretinib] (partner 0.25 µM)	0.919
Cc1cn(-c2cc(NC(=O)c3ccc(C)c(Nc4nccc(-c5cccnc5)n4)c3)cc(C(F)(F)F)c2)cn1 [Nilotinib] + Cc1nc(Nc2ncc(C(=O)Nc3c(C)cccc3Cl)s2)cc(N2CCN(CCO)CC2)n1 [Dasatinib] (partner 0.075 µM)	0.635

Now for the compound whose relative viability we want.
Problem: Given the entry Cc1cn(-c2cc(NC(=O)c3ccc(C)c(Nc4nccc(-c5cccnc5)n4)c3)cc(C(F)(F)F)c2)cn1 [Nilotinib] + CS(=O)(=O)N1CCN(Cc2cc3nc(-c4cccc5[nH]ncc45)nc(N4CCOCC4)c3s2)CC1 [Pictilisib] (partner 1 µM) , what relative viability was observed with NCI-H661?
Result: 0.325

###

Test system: 201T
TEST DETAILS: relative viability (nuclei count vs DMSO), 5 days (fraction); higher = more cells survive
SETTINGS: first compound 0.8 µM
OBSERVATION TYPE: relative viability
Lab note: write the figure by itself, no unit.

Examples with answers:
COMPOUND	ASSAY VALUE
Nc1cccc2c1CN(C1CCC(=O)NC1=O)C2=O (centres undefined) [Lenalidomide] + C[C@]1(O)C[C@@H](c2nc(-c3ccc4ccc(-c5ccccc5)nc4c3)c3c(N)nccn32)C1 [Linsitinib] (partner 1 µM)	1.18
Nc1cccc2c1CN(C1CCC(=O)NC1=O)C2=O (centres undefined) [Lenalidomide] + CC(C)C[C@H](NC(=O)[C@H](Cc1ccccc1)NC(=O)c1cnccn1)B(O)O [Bortezomib] (partner 0.002 µM)	0.553
Nc1cccc2c1CN(C1CCC(=O)NC1=O)C2=O (centres undefined) [Lenalidomide] + O=C(CCCCCCC(=O)Nc1ccccc1)NO [Vorinostat] (partner 1 µM)	0.791

Problem: Please look up its relative viability: Nc1cccc2c1CN(C1CCC(=O)NC1=O)C2=O (centres undefined) [Lenalidomide] + Nc1nc2[nH]cc(CCc3ccc(C(=O)N[C@@H](CCC(=O)O)C(=O)O)cc3)c2c(=O)[nH]1 [Pemetrexed] (partner 0.2 µM)
Result: 0.325

###

Test system: BEN
TEST DETAILS: relative viability (nuclei count vs DMSO), 5 days (fraction); higher = more cells survive
SETTINGS: first compound 0.2 µM
OBSERVATION TYPE: relative viability
Please give the numeric answer without any surrounding text.

// below: answered molecules
MOLECULE	OBSERVATION TYPE	ASSAY VALUE
Cc1csc(=NC2CCCCC2)n1/N=C/c1ccc(O)c(O)c1O [MIM1] + COc1cccc2cc(-c3nc([C@H]4CC[C@H](C(=O)O)CC4)n4ncnc(N)c34)[nH]c12 [OSI-027] (partner 0.5 µM)	relative viability	0.309
CCNC(=O)c1noc(-c2cc(C(C)C)c(O)cc2O)c1-c1ccc(CN2CCOCC2)cc1 [Luminespib] + CS(=O)(=O)N1CCN(Cc2cc3nc(-c4cccc5[nH]ncc45)nc(N4CCOCC4)c3s2)CC1 [Pictilisib] (partner 1 µM)	relative viability	0.191
CCNC(=O)c1noc(-c2cc(C(C)C)c(O)cc2O)c1-c1ccc(CN2CCOCC2)cc1 [Luminespib] + Cc1nc(Nc2ncc(C(=O)Nc3c(C)cccc3Cl)s2)cc(N2CCN(CCO)CC2)n1 [Dasatinib] (partner 0.075 µM)	relative viability	0.192

Attention now shifts to the item below.
Problem: Given CCNC(=O)c1noc(-c2cc(C(C)C)c(O)cc2O)c1-c1ccc(CN2CCOCC2)cc1 [Luminespib] + Nc1ncn([C@H]2C[C@H](O)[C@@H](CO)O2)c(=O)n1 [Decitabine] (partner 2 µM) , state its recorded relative viability.
Result: 0.294
